- test.system: human V1a receptor (Homo sapiens, UniProt P37288)
- Construct: expressed in transfected cells; host or cells: CHO K1 (Chinese hamster ovary), also stably transfected with a modified aequorin
- Sequence (P37288 whole entry): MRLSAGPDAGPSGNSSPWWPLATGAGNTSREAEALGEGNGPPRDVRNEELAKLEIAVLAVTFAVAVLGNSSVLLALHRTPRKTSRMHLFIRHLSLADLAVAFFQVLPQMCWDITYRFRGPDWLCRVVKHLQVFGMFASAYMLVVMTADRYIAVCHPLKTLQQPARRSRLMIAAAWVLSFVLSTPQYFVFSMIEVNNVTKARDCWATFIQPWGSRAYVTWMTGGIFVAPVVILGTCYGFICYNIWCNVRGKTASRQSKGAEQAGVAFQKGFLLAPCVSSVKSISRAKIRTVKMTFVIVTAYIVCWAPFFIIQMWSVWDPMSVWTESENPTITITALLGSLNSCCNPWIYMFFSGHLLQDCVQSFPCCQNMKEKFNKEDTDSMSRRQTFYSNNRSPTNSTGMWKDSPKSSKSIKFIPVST
- procedure.details: Cellular in vitro assay for vasopressin receptor activity (V1a, aequorin luminescence)
- Assay type: cell-based
- test.parameters: selectivity ratio hV2/hV1a; Phosphate
The threshold is inclusive: ratio IC50 hV2/hV1a of exactly 10 counts as t; values below receive f.

compound: NC(=O)c1nc(Cn2nc(-c3ccc(Cl)cc3)n(C[C@H](OP(=O)([O-])O)C(F)(F)F)c2=O)nn1-c1ccccc1C(F)(F)F.[K+] [Example 12]
group.label: f
--
compound: NC(=O)c1nc(Cn2nc(-c3ccc(Cl)cc3)n(C[C@H](OP(=O)([O-])O)C(F)(F)F)c2=O)nn1-c1ncccc1Cl.[K+] [Example 19]
group.label: f
--
compound: NC(=O)c1nc(Cn2nc(-c3ccc(Cl)cc3)n(C[C@H](OP(=O)([O-])O)C(F)(F)F)c2=O)nn1-c1ncccc1Cl.[Na+] [Example 20]
group.label: f
--
compound: NC(=O)c1nc(Cn2nc(-c3ccc(Cl)cc3)n(C[C@H](OP(=O)([O-])O)C(F)(F)F)c2=O)nn1-c1ncccc1C(F)(F)F.[K+] [Example 3]
group.label: t
--
compound: NC(=O)c1nc(Cn2nc(-c3ccc(Cl)cc3)n(C[C@H](OP(=O)([O-])O)C(F)(F)F)c2=O)nn1-c1ncccc1C(F)(F)F.[K+] [Example 2]
group.label: t
--
compound: NC(=O)c1nc(Cn2nc(-c3ccc(Cl)cc3)n(C[C@H](OP(=O)([O-])O)C(F)(F)F)c2=O)nn1-c1ncccc1Cl.[K+] [Example 18]
group.label: f
--
compound: NC(=O)c1nc(Cn2nc(-c3ccc(Cl)cc3)n(C[C@H](OP(=O)([O-])O)C(F)(F)F)c2=O)nn1-c1ncccc1C(F)(F)F.[Li+] [Example 7]
group.label: t
--
compound: NC(=O)c1nc(Cn2nc(-c3ccc(Cl)cc3)n(C[C@H](OP(=O)([O-])O)C(F)(F)F)c2=O)nn1-c1ncccc1C(F)(F)F.[Na+] [Example 4]
group.label: t
--
compound: NC(=O)c1nc(Cn2nc(-c3ccc(Cl)cc3)n(C[C@H](OP(=O)([O-])O)C(F)(F)F)c2=O)nn1-c1ccccc1C(F)(F)F.[Na+] [Example 13]
group.label: f
--
compound: NC(=O)c1nc(Cn2nc(-c3ccc(Cl)cc3)n(C[C@H](OP(=O)([O-])O)C(F)(F)F)c2=O)nn1-c1ncccc1C(F)(F)F.[Li+] [Example 6]
group.label: t
--
compound: NC(=O)c1nc(Cn2nc(-c3ccc(Cl)cc3)n(C[C@H](OP(=O)([O-])O)C(F)(F)F)c2=O)nn1-c1ncccc1C(F)(F)F.[Na+] [Example 5]
group.label: t
--
compound: NC(=O)c1nc(Cn2nc(-c3ccc(Cl)cc3)n(C[C@H](OP(=O)([O-])O)C(F)(F)F)c2=O)nn1-c1ccccc1C(F)(F)F.[K+] [Example 11]
group.label: f
--
compound: NC(=O)c1nc(Cn2nc(-c3ccc(Cl)cc3)n(C[C@H](OP(=O)([O-])O)C(F)(F)F)c2=O)nn1-c1ncccc1Cl.[Na+] [Example 21]
group.label: f
--
compound: NC(=O)c1nc(Cn2nc(-c3ccc(Cl)cc3)n(C[C@H](OP(=O)([O-])O)C(F)(F)F)c2=O)nn1-c1ccccc1C(F)(F)F.[Na+] [Example 14]
group.label: f

###

Documented IC50 across a set of molecules
- Tested on: human platelets
- procedure.details: Inhibition of vasopressin induced aggregation of human platelets
- Assay type: cell-based
- test.parameters: human platelet rich plasma, AVP 100 nM; without alkaline phosphatase; read-out: IC50 without AP
endpoint.label: IC50 (nM)

smi: NC(=O)c1nc(Cn2nc(-c3ccc(Cl)cc3)n(C[C@H](OP(=O)(O)O)C(F)(F)F)c2=O)nn1-c1ncccc1C(F)(F)F
assay.result: 145
--
smi: NC(=O)c1nc(Cn2nc(-c3ccc(Cl)cc3)n(C[C@H](O)C(F)(F)F)c2=O)nn1-c1ncccc1C(F)(F)F
assay.result: 21.1

###

- procedure.details: Solubility
- Format: physicochemical
- test.parameters: Tris buffer pH 8.5, pH 8.5, aqueous buffer, thermodynamic from solid, pH = 8.5 Tris buffer, 24 h room temperature, max. 500 μg/ml
Listing of entries alongside the reported solubility at 24 h.

compound: NC(=O)c1nc(Cn2nc(-c3ccc(Cl)cc3)n(C[C@H](OP(=O)([O-])[O-])C(F)(F)F)c2=O)nn1-c1ncccc1Cl.[Mg+2] [Example 22]
solubility at 24 h: > 500 µg/mL
--
compound: NC(=O)c1nc(Cn2nc(-c3ccc(Cl)cc3)n(C[C@H](OP(=O)([O-])O)C(F)(F)F)c2=O)nn1-c1ncccc1Cl.[Na+] [Example 20]
solubility at 24 h: > 500 µg/mL
--
compound: NC(=O)c1nc(Cn2nc(-c3ccc(Cl)cc3)n(C[C@H](OP(=O)(O)O)C(F)(F)F)c2=O)nn1-c1ncccc1C(F)(F)F [Example 1]
solubility at 24 h: > 500 µg/mL
